Conditions: in n-butanol, 323.15 K
measured.attribute: solubility (mole fraction)
# respond with the number and nothing more

Memo: O=C(O)C[C@H](O)C(=O)O , reported solubility (mole fraction): 0.25

====

Settings: in n-propanol, 303.15 K
measured.attribute: solubility (mole fraction)

Value of solubility (mole fraction) reported for the compound O=C(O)C[C@H](O)C(=O)O is 0.172

====

Conditions: in n-butanol, 283.15 K
measured.attribute: solubility (mole fraction)

For record O=C(O)C[C@H](O)C(=O)O the listed solubility (mole fraction) is 0.0948

====

Settings: in acetonitrile, 323.15 K
measured.attribute: solubility (mole fraction)
Lab note: record the figure alone, no unit after it.

Recorded solubility (mole fraction) (molecule O=C(O)C[C@H](O)C(=O)O ): 0.0838

====

Settings: in ethyl acetate, 318.15 K
measured.attribute: solubility (mole fraction)
Number only, no unit.

For reference, reported solubility (mole fraction) for O=C(O)C[C@H](O)C(=O)O stands at 0.0763

====

Conditions: in acetone, 283.15 K
measured.attribute: solubility (mole fraction)

Entry O=C(O)C[C@H](O)C(=O)O — recorded solubility (mole fraction) = 0.145

====

Conditions: in ethyl acetate, 283.15 K
measured.attribute: solubility (mole fraction)

// solubility (mole fraction) value for O=C(O)C[C@H](O)C(=O)O : 0.0029

====

Conditions: in n-propanol, 308.15 K
measured.attribute: solubility (mole fraction)
Lab note: jot the number down without any unit.

Lab note: O=C(O)C[C@H](O)C(=O)O gave solubility (mole fraction) of 0.193

====

Details: in n-propanol, 293.15 K
measured.attribute: solubility (mole fraction)

O=C(O)C[C@H](O)C(=O)O yielded solubility (mole fraction) of 0.134

====

Settings: in acetonitrile, 278.15 K
measured.attribute: solubility (mole fraction)
Answer with the value's number alone.

O=C(O)C[C@H](O)C(=O)O yielded solubility (mole fraction) of 0.045

====

Conditions: in ethanol, 283.15 K
measured.attribute: solubility (mole fraction)

// solubility (mole fraction) value for O=C(O)C[C@H](O)C(=O)O : 0.126

====

Settings: in ethanol, 278.15 K
measured.attribute: solubility (mole fraction)
Please give the numeric answer without any surrounding text.

Entry O=C(O)C[C@H](O)C(=O)O — recorded solubility (mole fraction) = 0.11

====

Conditions: in acetone, 313.15 K
measured.attribute: solubility (mole fraction)
// no unit, no text: just the number

Documented solubility (mole fraction) of O=C(O)C[C@H](O)C(=O)O : 0.201

====

Conditions: in isopropanol, 308.15 K
measured.attribute: solubility (mole fraction)
Reply: number alone, nothing else.

So for O=C(O)C[C@H](O)C(=O)O , the logged solubility (mole fraction) turned out to be 0.256

====

Details: in isopropanol, 318.15 K
measured.attribute: solubility (mole fraction)
Answer field: number only, no words.

compound O=C(O)C[C@H](O)C(=O)O , solubility (mole fraction) observed: 0.314

====

Conditions: in acetone, 318.15 K
measured.attribute: solubility (mole fraction)
Just the number, please, no unit attached.

Query O=C(O)C[C@H](O)C(=O)O yields solubility (mole fraction) of 0.211

====

Details: in ethyl acetate, 308.15 K
measured.attribute: solubility (mole fraction)

The recorded solubility (mole fraction) for O=C(O)C[C@H](O)C(=O)O is 0.0333

====

Conditions: in ethyl acetate, 293.15 K
measured.attribute: solubility (mole fraction)
Hey, just send me the number, nothing else.

// recorded solubility (mole fraction) for O=C(O)C[C@H](O)C(=O)O : 0.0083

====

Conditions: in isopropanol, 278.15 K
measured.attribute: solubility (mole fraction)
When you answer, write just the number.

According to the records, this compound O=C(O)C[C@H](O)C(=O)O displays solubility (mole fraction) of 0.117

====

Details: in n-propanol, 318.15 K
measured.attribute: solubility (mole fraction)
// keep it numeric: no unit symbol after the value

Reported solubility (mole fraction) for O=C(O)C[C@H](O)C(=O)O was 0.238

====

Conditions: in acetone, 323.15 K
measured.attribute: solubility (mole fraction)
Give only the figure.

Record summary for O=C(O)C[C@H](O)C(=O)O : reported solubility (mole fraction) = 0.225

====

Details: in ethyl acetate, 278.15 K
measured.attribute: solubility (mole fraction)
No unit in the answer, please; the number alone is enough.

Kindly note the recorded solubility (mole fraction) for O=C(O)C[C@H](O)C(=O)O , which is 0.0017

====

Conditions: in acetonitrile, 313.15 K
measured.attribute: solubility (mole fraction)
Just the number, please, no unit after it.

O=C(O)C[C@H](O)C(=O)O yielded solubility (mole fraction) of 0.0733

====

Settings: in ethanol, 303.15 K
measured.attribute: solubility (mole fraction)
Could you respond with only the numeric value?

response.value for O=C(O)C[C@H](O)C(=O)O (field: solubility (mole fraction)) = 0.207

====

Settings: in n-butanol, 278.15 K
measured.attribute: solubility (mole fraction)
Please give the numeric answer without any surrounding text.

solubility (mole fraction) reported for this compound O=C(O)C[C@H](O)C(=O)O : 0.0832

====

Conditions: in isopropanol, 313.15 K
measured.attribute: solubility (mole fraction)
Please give only the number in your answer, with no unit.

The recorded solubility (mole fraction) for entry O=C(O)C[C@H](O)C(=O)O equals 0.285

====

Conditions: in ethanol, 308.15 K
measured.attribute: solubility (mole fraction)
Lab note: jot down the number only; don't add units.

Measured solubility (mole fraction), O=C(O)C[C@H](O)C(=O)O : 0.232

====

Settings: in ethanol, 313.15 K
measured.attribute: solubility (mole fraction)
Would you mind answering with just the numeric figure?

Summary for this molecule, O=C(O)C[C@H](O)C(=O)O : solubility (mole fraction) is 0.256

====

Conditions: in acetone, 298.15 K
measured.attribute: solubility (mole fraction)
Response field accepts a number only; no unit should be typed.

Measured solubility (mole fraction), O=C(O)C[C@H](O)C(=O)O : 0.17

====

Details: in ethanol, 293.15 K
measured.attribute: solubility (mole fraction)
Give only the figure.

# solubility (mole fraction) (molecule: O=C(O)C[C@H](O)C(=O)O ) is 0.166

====

Conditions: in n-butanol, 293.15 K
measured.attribute: solubility (mole fraction)
Just the number, please, no unit after it.

The value of solubility (mole fraction) measured for the molecule O=C(O)C[C@H](O)C(=O)O turned out to be 0.124

====

Conditions: in n-butanol, 308.15 K
measured.attribute: solubility (mole fraction)
Please give only the number in your answer, with no unit.

Recorded solubility (mole fraction) (molecule O=C(O)C[C@H](O)C(=O)O ): 0.18

====

Settings: in ethanol, 318.15 K
measured.attribute: solubility (mole fraction)
Kindly provide the number alone.

Input O=C(O)C[C@H](O)C(=O)O . Output solubility (mole fraction): 0.283

====

Conditions: in acetonitrile, 288.15 K
measured.attribute: solubility (mole fraction)

Measured solubility (mole fraction), O=C(O)C[C@H](O)C(=O)O : 0.0523

====

Conditions: in acetonitrile, 283.15 K
measured.attribute: solubility (mole fraction)

Data point: O=C(O)C[C@H](O)C(=O)O ; solubility (mole fraction) = 0.0485

====

Conditions: in ethanol, 298.15 K
measured.attribute: solubility (mole fraction)
Answer field: number only, no words.

The value of solubility (mole fraction) measured for the compound O=C(O)C[C@H](O)C(=O)O turned out to be 0.187

====

Conditions: in isopropanol, 288.15 K
measured.attribute: solubility (mole fraction)

# molecule O=C(O)C[C@H](O)C(=O)O ; its solubility (mole fraction) = 0.157

====

Conditions: in acetonitrile, 303.15 K
measured.attribute: solubility (mole fraction)
Quick one: just the number, no unit, thanks!

response.value for O=C(O)C[C@H](O)C(=O)O (field: solubility (mole fraction)) = 0.0646

====

Conditions: in ethanol, 288.15 K
measured.attribute: solubility (mole fraction)
I'd appreciate a reply containing only the number, no unit.

Reported solubility (mole fraction) of O=C(O)C[C@H](O)C(=O)O : 0.145

====

Details: in n-butanol, 303.15 K
measured.attribute: solubility (mole fraction)
Reply with just the number.

# solubility (mole fraction) of O=C(O)C[C@H](O)C(=O)O = 0.159

====

Settings: in n-butanol, 313.15 K
measured.attribute: solubility (mole fraction)

compound O=C(O)C[C@H](O)C(=O)O , solubility (mole fraction) observed: 0.201

====

Details: in isopropanol, 283.15 K
measured.attribute: solubility (mole fraction)

Form field solubility (mole fraction), entry O=C(O)C[C@H](O)C(=O)O : 0.136

====

Conditions: in n-propanol, 288.15 K
measured.attribute: solubility (mole fraction)

For reference, reported solubility (mole fraction) for O=C(O)C[C@H](O)C(=O)O stands at 0.118

====

Conditions: in ethanol, 323.15 K
measured.attribute: solubility (mole fraction)
Give the figure only, with no unit attached.

Data point: O=C(O)C[C@H](O)C(=O)O ; solubility (mole fraction) = 0.314

====

Conditions: in acetonitrile, 293.15 K
measured.attribute: solubility (mole fraction)

Measured solubility (mole fraction) of O=C(O)C[C@H](O)C(=O)O : 0.0559
